Measured binding signal, listed per entry.
Experimental target: T1, RBFOX1 RRM RbFoxmut (Fox-RRM*) (Homo sapiens, UniProt Q9NWB1 109-208, R118D;E147R;N151S;E152T)
T1 sequence: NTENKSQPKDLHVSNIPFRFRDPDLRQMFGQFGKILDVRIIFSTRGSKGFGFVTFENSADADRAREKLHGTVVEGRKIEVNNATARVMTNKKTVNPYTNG
Protocol text: EMSA; HiTS-Eq, 1 nM pool, 10 min; buffer printed only for the single-RNA assays: 10 mM Tris pH 7.5, 150 mM NaCl, 3.4 mM EDTA, 0.001% NP-40, 30 C
Cond: tags: His6 N-terminal (pET28a); label: 5' 32P
The full ranking holds about 16,000 sequences; the median of “ka relative to ugcaugu” is about 0.096, and the highest 2% start at about 0.35. The full list was thinned out, with the highest values kept by preference.

Field: example entries. Status: answers known.
GUGAAUC (DNA:RNA) RNA: GGGAGACCGGAAUUCAGAUUGUCCGUGAAUCUUAAAUCCCGUCGUAGCCACCA DNA 1: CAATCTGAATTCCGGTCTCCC DNA 2: TGGTGGCTACGACGGGATT ... 0.42 KA relative to UGCAUGU
GAAUGUC (DNA:RNA) RNA: GGGAGACCGGAAUUCAGAUUGUCCGAAUGUCUUAAAUCCCGUCGUAGCCACCA DNA 1: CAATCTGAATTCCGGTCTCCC DNA 2: TGGTGGCTACGACGGGATT ... 0.55 KA relative to UGCAUGU
UUGACUG (DNA:RNA) RNA: GGGAGACCGGAAUUCAGAUUGUCCUUGACUGUUAAAUCCCGUCGUAGCCACCA DNA 1: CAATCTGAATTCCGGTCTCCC DNA 2: TGGTGGCTACGACGGGATT ... 0.243 KA relative to UGCAUGU

Which value of binding signal has been reported for GGUGAUU (DNA:RNA) RNA: GGGAGACCGGAAUUCAGAUUGUCCGGUGAUUUUAAAUCCCGUCGUAGCCACCA DNA 1: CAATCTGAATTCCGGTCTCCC DNA 2: TGGTGGCTACGACGGGATT in the records?
0.0776 KA relative to UGCAUGU
